This collection of values is drawn from ChEMBL document CHEMBL1126685.

Study target: Adenosine A2 receptor (guinea pig)
Measurement notes: Binding affinity against adenosine A2 receptor of striatal membrane using [3H]CGS-21680 as a radioligand
Observed property: Ki (µM)
Just the number please, in µM, no unit attached.

Value sought: Ki, system Adenosine A2 receptor (guinea pig), item C=CCCn1cnc2c1c(=O)n(C)c(=O)n2CCC . Result: 5.6

Summary line: CCCn1c(=O)n(C)c(=O)c2[nH]cnc21 , Adenosine A2 receptor (guinea pig), reported Ki = 8

* * *

Species on record: Cavia porcellus
Measurement notes: Effective concentration required in vitro for tracheal muscle (from male Hartley guinea pigs) relaxation
Assay type: functional
Measurement context: Trachea
Observed property: EC50 (µM)
Numbers only here, please. The scale is µM.

Summary for this molecule, CCCCn1c(=O)c2c(ncn2CC(C)=O)n(CCCC)c1=O : EC50 is 0.01

* * *

Study target: cyclic AMP phosphodiesterase (guinea pig)
Measurement notes: Inhibition of cyclic AMP-phosphodiesterase ( PDE) in the supernatant of tracheal muscle homogenate
param class (str): category from Ki; see ranges lower segment: < 20 µM; middle segment: ≥ 20 µM and < 50 µM; upper segment: ≥ 50 µM

CCCn1c(=O)n(C)c(=O)c2c1ncn2CCOC :: upper segment
CCCn1c(=O)n(CCC#N)c(=O)c2[nH]cnc21 :: middle segment
CCCn1c(=O)n(C)c(=O)c2c1ncn2CCCN(C)C :: upper segment

QUERY: Textbook exercise: identify the category of the compound given here, CCCn1c(=O)n(CCC(=O)O)c(=O)c2[nH]cnc21 , according to its measured value.
RESULT: upper segment

QUERY: Just checking, what class would you give CCCn1c(=O)n(CCOC)c(=O)c2[nH]cnc21 here?
RESULT: lower segment

QUERY: Exam item: assign CCCn1c(=O)n(C)c(=O)c2c1ncn2CC#N to the correct category.
RESULT: lower segment

QUERY: For CCCn1c(=O)n(CCC(C)=O)c(=O)c2[nH]cnc21 , which Ki bin applies?
RESULT: lower segment

QUERY: Into which category would you place CCCn1c(=O)n(C)c(=O)c2c1ncn2CCC#N ?
RESULT: middle segment

QUERY: Lab note: sort CCCn1c(=O)n(C)c(=O)c2c1ncn2CC(C)=O into the matching Ki band.
RESULT: middle segment

QUERY: For C=CCCn1c(=O)c2[nH]cnc2n(CCC)c1=O , which Ki bin applies?
RESULT: lower segment

* * *

Species on record: Cavia porcellus
Measurement notes: Effective concentration required in vitro for tracheal muscle (from male Hartley guinea pigs) relaxation
Assay type: functional
Measurement context: Trachea
Please note: EC50 exactly at 10 µM is False. Only values below 10 µM get True.

CCCn1c(=O)n(CC(=O)O)c(=O)c2[nH]cnc21 :: False

QUERY: Does the reported EC50 of CCCn1c(=O)n(CC)c(=O)c2[nH]cnc21 stay below 10 µM?
RESULT: True

QUERY: Lab note: EC50 threshold 10 µM. Does this molecule come in strictly under it? CCCn1c(=O)n(C)c(=O)c2c1ncn2CCCN(C)C
RESULT: False

QUERY: Consider the molecule C=CCCn1c(=O)c2[nH]cnc2n(CCC)c1=O . Is its EC50 strictly less than 10 µM?
RESULT: True

QUERY: Hi there! Is EC50 for CCCn1cnc2c1c(=O)n(C)c(=O)n2CCC below 10 µM, do you know?
RESULT: True

QUERY: API: query returns whether the molecule falls strictly under 10 µM in EC50. Query: CCCn1c(=O)n(CC#N)c(=O)c2[nH]cnc21
RESULT: True

QUERY: Could you please tell me whether EC50 recorded for CCCn1c(=O)n(CCC(N)=O)c(=O)c2[nH]cnc21 is less than 10 µM?
RESULT: False

* * *

Study target: cyclic AMP phosphodiesterase (guinea pig)
Measurement notes: Inhibition of cyclic AMP-phosphodiesterase ( PDE) in the supernatant of tracheal muscle homogenate
The class of a record is decided solely by its measured Ki; consult low = under 20 µM, intermediate = from 20 µM up to 50 µM, high = 50 µM and over

CCCn1c(=O)n(C)c(=O)c2c1ncn2CCCO :: intermediate
CCCn1c(=O)n(CCOCC)c(=O)c2[nH]cnc21 :: intermediate
CCCn1c(=O)n(CCCO)c(=O)c2[nH]cnc21 :: low
CCCn1c(=O)n(CC(C)=O)c(=O)c2[nH]cnc21 :: intermediate
CCCn1c(=O)n(CCCCC(C)=O)c(=O)c2[nH]cnc21 :: low
CCCn1c(=O)n(C)c(=O)c2c1ncn2CC(N)=O :: high
CCCn1c(=O)n(CCN(C)C)c(=O)c2[nH]cnc21 :: low
CCCn1c(=O)n(CCCN(C)C)c(=O)c2[nH]cnc21 :: high
CCCn1c(=O)n(CC(=O)O)c(=O)c2[nH]cnc21 :: high
CCCn1c(=O)n(C)c(=O)c2c1ncn2CCC(C)=O :: intermediate

QUERY: Which class does C=CCn1c(=O)c2[nH]cnc2n(CCC)c1=O fall in?
RESULT: intermediate

QUERY: Into which bin does this compound go? CCCn1c(=O)n(C)c(=O)c2c1ncn2CCN(C)C
RESULT: high

* * *

Measurement notes: Bronchoselectivity expressed as ratio of stimulatory activity in the right atrium (EC15) to relaxant activity in the tracheal muscle (EC50)
Assay type: functional, Cardiac atrium
Observed property: Selectivity
A bare number is all that is needed in reply.

CCCn1c(=O)n(CCCO)c(=O)c2[nH]cnc21 :: 5.2

Selectivity measured on CCCn1c(=O)n(CCCN(C)C)c(=O)c2[nH]cnc21 = 4.9

// CCCn1c(=O)n(C)c(=O)c2c1ncn2CCO : Selectivity value = 3.1

Given item CCCn1c(=O)n(CCC(C)=O)c(=O)c2[nH]cnc21 , the value recorded as its Selectivity is 7.7

Form field Selectivity, entry CCCn1c(=O)n(C)c(=O)c2c1ncn2CCC#N : 3.6

// field: Selectivity; key: CCCn1c(=O)n(CCO)c(=O)c2[nH]cnc21 ; value = 3.9

* * *

Measurement notes: Bronchoselectivity expressed as ratio of stimulatory activity in the right atrium (EC15) to relaxant activity in the tracheal muscle (EC50)
Type: functional, Cardiac atrium
Returns the class for an entry based on its Selectivity. Class ranges: low = under 2, medium = from 2 up to 9, high = 9 and over

CCCn1c(=O)n(CCOCC)c(=O)c2[nH]cnc21 :: high
CCCn1c(=O)n(CCCOC)c(=O)c2[nH]cnc21 :: high
CCCn1c(=O)n(C)c(=O)c2c1ncn2CCC(=O)O :: low

Kindly review the next molecule as well.
QUERY: Classify this molecule: CCCn1c(=O)n(CCCCC(C)=O)c(=O)c2[nH]cnc21
RESULT: high

* * *

Organism: Cavia porcellus
Measurement notes: Effective concentration required in vitro for tracheal muscle (from male Hartley guinea pigs) relaxation
Assay type: functional
Measurement context: Trachea
Observed property: pEC50
Entry type: numeric. Quantity: pEC50, the -log10 of concentration in molar units.

CCCn1c(=O)n(C)c(=O)c2c1ncn2CCCO :: 4.65
CCCn1c(=O)n(C)c(=O)c2c1ncn2CC(C)=O :: 5.72
CCCn1c(=O)n(C)c(=O)c2c1ncn2CCO :: 4.50
CCCn1c(=O)n(C)c(=O)c2[nH]cnc21 :: 5.80
CCCn1c(=O)n(CCCO)c(=O)c2[nH]cnc21 :: 5.29

So, CCCn1c(=O)n(CC(C)=O)c(=O)c2[nH]cnc21 ? Its pEC50 was 4.83

Noted for CCCn1c(=O)n(C)c(=O)c2c1ncn2CCOC : its pEC50 reads 4.44

get_value(item= C=CCn1c(=O)c2[nH]cnc2n(CCC)c1=O , readout=pEC50) returns 5.80

get_value(item= CCCn1c(=O)n(CCOCC)c(=O)c2[nH]cnc21 , readout=pEC50) returns 7.15

Per the records, this molecule ( C=CCn1cnc2c1c(=O)n(C)c(=O)n2CCC ) has pEC50 equal to 4.95

# pEC50 (molecule: CCCn1c(=O)n(CCCCC(C)=O)c(=O)c2[nH]cnc21 ) is 7.22

Entry C=CCCn1cnc2c1c(=O)n(C)c(=O)n2CCC , pEC50 reported as 4.77

For CCCn1c(=O)n(C)c(=O)c2c1ncn2CC#N the molecule record lists pEC50 as 4.45

What the record says about CCCn1c(=O)n(CCOC)c(=O)c2[nH]cnc21 : pEC50 is 6.15

For this molecule ( CCCn1c(=O)n(C)c(=O)c2c1ncn2CCOCC ), measured pEC50 is 5.34

Consider CCCn1c(=O)n(CCC(C)=O)c(=O)c2[nH]cnc21 . Its measured pEC50 is 5.46

Looking up CC(=O)CCCCn1c(=O)c2c(ncn2C)n(C)c1=O [PENTOXIFYLLINE] , I see its pEC50 listed as 4.55

* * *

Study target: Adenosine receptor A1 (Cavia porcellus)
Sequence (P47745 whole entry): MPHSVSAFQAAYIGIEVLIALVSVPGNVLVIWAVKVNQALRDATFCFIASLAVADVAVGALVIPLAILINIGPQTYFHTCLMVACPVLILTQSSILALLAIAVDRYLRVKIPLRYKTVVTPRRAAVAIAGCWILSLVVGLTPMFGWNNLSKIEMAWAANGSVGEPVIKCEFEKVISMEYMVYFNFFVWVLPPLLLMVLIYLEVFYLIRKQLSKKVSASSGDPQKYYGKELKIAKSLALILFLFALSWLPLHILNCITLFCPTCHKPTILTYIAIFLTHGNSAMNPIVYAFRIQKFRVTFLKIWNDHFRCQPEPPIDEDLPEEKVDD
Measurement notes: Binding affinity against Adenosine A1 receptor of cerebral cortex using [3H]-CPX
Type: tissue-based
Observed property: Ki (µM)
Numeric only. Scale: µM

# value of Ki, Adenosine receptor A1 (Cavia porcellus), item CCCCn1c(=O)c2c(ncn2CC(C)=O)n(CCCC)c1=O [DENBUFYLLINE] = 16.5
